These data points were gathered from patent US20260015420A1.

# study_system: T1, human CD47-Fc (human, UniProt Q08722 19-139)
# T1 construct: also called hCD47; human CD47-Fc protein; not shown: Fc part
# T1 sequence (Q08722 19-139 limits assumed): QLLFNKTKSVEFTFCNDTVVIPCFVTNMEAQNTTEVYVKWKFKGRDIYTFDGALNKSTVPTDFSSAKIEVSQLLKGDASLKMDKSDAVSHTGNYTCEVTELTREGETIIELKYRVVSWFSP
# experiment_notes: competition ELISA: human CD47-Fc binding to plate-bound human SIRPa-Fc, % binding
IC50 (read off the curve) values, listed per item

Use the examples below as a reference point.
| binder | recorded_value |
| --- | --- |
| VH1.8/VL1.6, human IgG1null (antibody, V domains shown, IgG1null; also called Clone VH1.8/VL1.6) VH: QVQLVQSGAEVKKPGASVKVSCKASGYTFTNYAMHWVRQAPGQRLEWMGTIYPGNDDTKYNQKFQGRVTITADTSASTAYMELSSLRSEDTAVYYCARGGFRAMDYWGQGTLVTVSS VL: DIVMTQSPLSLPVTPGEPASISCRSSQSLLHSNANTYLGWYLQKPGQSPQLLIYKGSNRFSGVPDRFSGSGSGTDFTLKISRVEAEDVGVYYCFQASHVPYTFGQGTKLEIK | ~0.3 µg/mL |
| VH1.8/VL1.5, human IgG1null (antibody, V domains shown, IgG1null; also called Clone VH1.8/VL1.5) VH: QVQLVQSGAEVKKPGASVKVSCKASGYTFTNYAMHWVRQAPGQRLEWMGTIYPGNDDTKYNQKFQGRVTITADTSASTAYMELSSLRSEDTAVYYCARGGFRAMDYWGQGTLVTVSS VL: DIVMTQSPLSLPVTPGEPASISCRSSQSLLHSNAYNYLGWYLQKPGQSPQLLIYKGSNRFSGVPDRFSGSGSGTDFTLKISRVEAEDVGVYYCFQASHVPYTFGQGTKLEIK | ~0.4 µg/mL |
| VH1.8/VL1.4, human IgG1null (antibody, V domains shown, IgG1null; also called Clone VH1.8/VL1.4) VH: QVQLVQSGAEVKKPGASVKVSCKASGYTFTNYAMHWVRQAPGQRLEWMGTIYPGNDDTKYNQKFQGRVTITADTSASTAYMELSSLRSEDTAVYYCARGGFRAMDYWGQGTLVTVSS VL: DIVMTQSPLSLPVTPGEPASISCRSSQSLLHSNAYNYLGWYLQKPGQSPQLLIYKGSNRFSGVPDRFSGSGSGTDFTLKISRVEAEDVGVYYCFQASQVPYTFGQGTKLEIK | ~2 µg/mL |
| chimeric anti-CD47 m5F9G4, human IgG1null (antibody, V domains shown, Murine v-domains on human IgG1null (IgG1 with L234A/L235A/G237A), kappa; also called m5F9G4 IgG1; m59G4) VH: QVQLQQPGAELVKPGASVMMSCKASGYTFTNYNMHWVKQTPGQGLEWIGTIYPGNDDTSYNQKFKDKATLTADKSSSAAYMQLSSLTSEDSAVYYCARGGYRAMDYWGQGTSVTVSS VL: DVLMTQTPLSLPVSLGDQASISCRSSQSIVYSNGNTYLGWYLQKPGQSPKLLIYKVSNRFSGVPDRFSGSGSGTDFTLKISRVEAEDLGVYHCFQGSHVPYTFGGGTKVEIK | ~0.3 µg/mL |

Reported IC50 (read off the curve) for VH1.8/VL1.3, human IgG1null (antibody, V domains shown, IgG1null; also called Clone VH1.8/VL1.3) VH: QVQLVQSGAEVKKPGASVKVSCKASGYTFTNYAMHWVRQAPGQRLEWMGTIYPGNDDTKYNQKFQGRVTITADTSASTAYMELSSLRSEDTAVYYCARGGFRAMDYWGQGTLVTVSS VL: DIVMTQSPLSLPVTPGEPASISCRSSQSLLHSNANTYLGWYLQKPGQSPQLLIYKGSNRFSGVPDRFSGSGSGTDFTLKISRVEAEDVGVYYCFQASQVPYTFGQGTKLEIK was ~0.4 µg/mL
